src = ChEMBL document CHEMBL1136657

test system: Staphylococcus aureus; experiment: Minimum inhibitory concentration against Staphylococcus aureus (GC 4544) was determined; assay type: functional
Assay readout: MIC (µg/mL)
Give bare numbers, in µg/mL.

COc1ccc2cc(CO[C@@H]3[C@@H](O[C@H]4[C@H](O)[C@H](O)[C@@H](Oc5ccc(C[C@H]6NC(=O)[C@H]([C@@H](C)c7ccccc7)NC(=O)CNC(=O)[C@H](CO)NC(=O)[C@@H]([C@@H](O)[C@@H]7CN=C(N)N7[C@H]7O[C@H](O)[C@@H](O)[C@H](O)[C@@H]7O)NC(=O)[C@H]([C@@H](O)[C@@H]7CN=C(N)N7)NC6=O)cc5)O[C@@H]4CO)O[C@H](CO)[C@@H](O)[C@@H]3O)ccc2c1: 128
COc1ccc2cc(COC[C@H]3O[C@H](O[C@H]4[C@H](O)[C@H](O)[C@@H](Oc5ccc(C[C@H]6NC(=O)[C@H]([C@@H](C)c7ccccc7)NC(=O)CNC(=O)[C@H](CO)NC(=O)[C@@H]([C@@H](O)[C@@H]7CN=C(N)N7[C@H]7O[C@H](O)[C@@H](O)[C@H](O)[C@@H]7O)NC(=O)[C@H]([C@@H](O)[C@@H]7CN=C(N)N7)NC6=O)cc5)O[C@@H]4CO)[C@@H](O)[C@@H](O)[C@@H]3O)ccc2c1: 2
COc1ccc2cc(CO[C@H]3[C@H](O)[C@H](O)[C@@H](O[C@H]4[C@H](O)[C@H](O)[C@@H](Oc5ccc(C[C@H]6NC(=O)[C@H]([C@@H](C)c7ccccc7)NC(=O)CNC(=O)[C@H](CO)NC(=O)[C@@H]([C@@H](O)[C@@H]7CN=C(N)N7[C@H]7O[C@H](O)[C@@H](O)[C@H](O)[C@@H]7O)NC(=O)[C@H]([C@@H](O)[C@@H]7CN=C(N)N7)NC6=O)cc5)O[C@@H]4CO)O[C@@H]3CO)ccc2c1: 1

# evaluate next
INPUT: Item under review: COc1ccc2cc(CO[C@H]3[C@H](O)[C@@H](CO)OC(O[C@H]4[C@H](O)[C@H](O)[C@@H](Oc5ccc(C[C@H]6NC(=O)[C@H]([C@@H](C)c7ccccc7)NC(=O)CNC(=O)[C@H](CO)NC(=O)[C@@H]([C@@H](O)[C@@H]7CN=C(N)N7[C@H]7O[C@H](O)[C@@H](O)[C@H](O)[C@@H]7O)NC(=O)[C@H]([C@@H](O)[C@@H]7CN=C(N)N7)NC6=O)cc5)O[C@@H]4CO)[C@H]3O)ccc2c1 (some centres undefined) . Reported MIC?
OUTPUT: 4
